growth values by entry
- Tested on: UACC-62 melanoma
- TEST_NAME: NCI-60 one-dose screen, 48 h (100 = growth as untreated, 0 = no growth, -100 = all killed)
- CONDITION: 10 µM unless noted
About 83,000 compounds went through this panel and 20% of them were active in at least one assay; those are over-represented in the sample as a whole.
Lab book: enter the figure in %, no units written.

Please review the following examples before continuing.
{"columns": ["MOLECULE", "UNIT_ANNOTATION", "growth"],
 "data": [
  ["CC(=O)c1cc(C(=O)c2ccc(Br)cc2)n2cc(C)cc(C)c12", "%", 82.6],
  ["CCNC(=O)N1CCc2cc(OC)c(OCCc3ccc(OC)cc3)cc2C1c1ccc(Cl)cc1C (centres undefined)", "%", 22.8],
  ["COc1c(N2CC3CCCNC3C2)c(F)cc2c(=O)c(C(=O)N/N=C/c3ccccc3)cn(C3CC3)c12 (centres undefined)", "%", 105]
]}

Could you now consider this next molecule?
Item O=C(CSc1nc2ccccc2c(=O)n1-c1ccccc1)Nc1cccc(C(=O)/C=C/c2ccccc2)c1 has what recorded growth? 88.7
